System: Candida albicans ATCC 2002
# MIC annotations
READOUT_TYPE: MIC (µM)

COMPOUND	READOUT_TYPE	REPORTED_RELATION	QUANTITATIVE_READOUT
CC[C@H](C)[C@H](NC(=O)[C@@H]1CCCN1C(=O)[C@H](Cc1ccccc1)NC(=O)[C@@H](N)Cc1ccccc1)C(=O)N[C@H](C(=O)NCC(=O)N[C@@H](CCCCN)C(=O)N[C@@H](CC(C)C)C(=O)N[C@@H](CC(C)C)C(=O)N[C@@H](Cc1ccccc1)C(=O)NCC(=O)N[C@@H](CC(C)C)C(=O)N[C@@H](Cc1ccccc1)C(=O)NCC(=O)N[C@@H](CC(C)C)C(=O)N[C@@H](CC(C)C)C(N)=O)C(C)C [FFPIVGKLLFGLFGLL]	MIC	=	0.702
CC[C@H](C)[C@H](NC(=O)[C@H](Cc1ccccc1)NC(=O)[C@@H](N)CCCN=C(N)N)C(=O)N[C@@H](Cc1ccc(O)cc1)C(=O)N[C@@H](CCSC)C(=O)N[C@@H](CCCCN)C(=O)NCC(=O)N[C@@H](Cc1ccccc1)C(=O)NCC(=O)N[C@@H](CCCCN)C(=O)N1CCC[C@H]1C(=O)N[C@@H](CCCN=C(N)N)C(=O)N[C@@H](Cc1ccccc1)C(=O)NCC(=O)N[C@@H](CCCCN)C(=O)N[C@@H](CCCN=C(N)N)C(=O)O [RFIYMKGFGKPRFGKR]	MIC	=	25.1
CC[C@H](C)[C@H](NC(=O)[C@@H](NC(=O)[C@@H](NC(=O)[C@@H]1CCCN1C(=O)[C@H](Cc1c[nH]c2ccccc12)NC(=O)[C@H](Cc1ccccc1)NC(=O)[C@H](CCCN=C(N)N)NC(=O)[C@H](CCCCN)NC(=O)[C@@H](NC(=O)[C@@H](N)CCCN=C(N)N)[C@@H](C)CC)C(C)C)C(C)C)C(=O)N[C@@H](CCCN=C(N)N)C(=O)N[C@H](C(=O)N[C@H](C(=O)N[C@H](C(=O)O)C(C)C)C(C)C)[C@@H](C)O [RIKRFWPVVIRTVV]	MIC	≥	84.8

====

Values of MIC reported for Staphylococcus epidermidis ATCC 12228 appear below.
READOUT_TYPE: MIC (µM)

SMILES_TEXT	READOUT_TYPE	READOUT_UNITS	REPORTED_RELATION	QUANTITATIVE_READOUT
CC(C)[C@H](N)C(=O)N[C@@H](CS)C(=O)N[C@@H](CCCN=C(N)N)C(=O)N[C@@H](CCCCN)C(=O)N1CCC[C@H]1C(=O)N[C@H](C(=O)N[C@H](C(=O)N[C@@H](CS)C(=O)N[C@@H](CCCN=C(N)N)C(=O)N[C@@H](CCCCN)C(=O)N1CCC[C@H]1C(=O)N[C@H](C(N)=O)C(C)C)C(C)C)C(C)C	MIC	µM	>	64
NC(=O)[C@H](CCCN=C(N)N)NC(=O)[C@H](CCCN=C(N)N)NC(=O)[C@H](Cc1ccccc1)NC(=O)[C@H](CCCN=C(N)N)NC(=O)[C@H](Cc1ccccc1)NC(=O)[C@H](Cc1ccccc1)NC(=O)[C@H](Cc1ccccc1)NC(=O)[C@H](CCCN=C(N)N)NC(=O)[C@H](Cc1ccccc1)NC(=O)[C@H](CCCN=C(N)N)NC(=O)[C@@H](N)CCCN=C(N)N	MIC	µM	=	4
CC(C)C[C@H](NC(=O)[C@H](Cc1cnc[nH]1)NC(=O)[C@H](CC(C)C)NC(=O)[C@H](CO)NC(=O)[C@H](CC(C)C)NC(=O)[C@H](CCCCN)NC(=O)[C@H](Cc1ccccc1)NC(=O)[C@@H]1CCCN1)C(N)=O	MIC	µM	=	64
CC(C)C[C@H](NC(=O)[C@H](Cc1c[nH]c2ccccc12)NC(=O)[C@H](CCCCN)NC(=O)[C@H](CCCCN)NC(=O)[C@H](CC(C)C)NC(=O)[C@H](Cc1c[nH]c2ccccc12)NC(=O)[C@H](CCCCN)NC(=O)[C@H](CCCCN)NC(=O)[C@@H](N)CC(C)C)C(=O)N[C@@H](CCCCN)C(=O)N[C@@H](CCCCN)C(N)=O	MIC	µM	=	26.7
CC[C@H](C)[C@H](N)C(=O)N[C@@H](CC(N)=O)C(=O)N[C@@H](Cc1c[nH]c2ccccc12)C(=O)N[C@@H](CC(C)C)C(=O)N[C@@H](CCCCN)C(=O)N[C@@H](C)C(=O)N[C@@H](CCCCN)C(=O)N[C@@H](CCCCN)C(=O)N[C@H](C(=O)N[C@@H](C)C(=O)NCC(=O)N[C@@H](CCSC)C(=O)N[C@H](C(=O)N[C@@H](CC(C)C)C(N)=O)[C@@H](C)CC)C(C)C	MIC	µM	=	39.7
CC[C@H](C)[C@H](NC(=O)[C@H](CO)NC(=O)[C@H](CCCCN)NC(=O)[C@H](CC(C)C)NC(=O)[C@H](CCCCN)NC(=O)[C@@H](N)CC(C)C)C(=O)N[C@H](C(=O)N[C@@H](CO)C(=O)N[C@@H](Cc1c[nH]c2ccccc12)C(=O)N[C@@H](C)C(=O)N[C@@H](CCCCN)C(=O)N[C@@H](CCCCN)C(=O)N[C@H](C(=O)N[C@@H](CC(C)C)C(N)=O)C(C)C)C(C)C	MIC	µM	=	3.87
CC(C)C[C@H](NC(=O)[C@H](CC(C)C)NC(=O)[C@H](CCCCN)NC(=O)[C@H](CC(C)C)NC(=O)[C@H](CC(C)C)NC(=O)[C@H](Cc1c[nH]c2ccccc12)NC(=O)[C@H](CCCCN)NC(=O)[C@H](CC(C)C)NC(=O)[C@H](CC(C)C)NC(=O)[C@H](CCCCN)NC(=O)[C@@H](N)CC(C)C)C(N)=O	MIC	µM	=	2.25
CC[C@H](C)[C@H](NC(=O)[C@H](CCCN=C(N)N)NC(=O)[C@@H](NC(=O)[C@@H](NC(=O)[C@@H](NC(=O)[C@H](CCCN=C(N)N)NC(=O)[C@@H](NC(=O)[C@@H](N)CCCN=C(N)N)[C@@H](C)CC)[C@@H](C)CC)[C@@H](C)CC)[C@@H](C)CC)C(=O)N[C@@H](CCCN=C(N)N)C(N)=O	MIC	µM	=	4
CC[C@H](C)[C@H](NC(=O)[C@H](CCCN=C(N)N)NC(=O)[C@H](CCCCN)NC(=O)[C@H](CCCCN)NC(=O)[C@@H](NC(=O)[C@H](CCCCN)NC(=O)[C@H](CCC(=O)O)NC(=O)[C@H](CCCCN)NC(=O)[C@@H](N)CCCN=C(N)N)[C@@H](C)CC)C(=O)NCC(=O)N[C@@H](CCCCN)C(=O)N[C@H](C(=O)N[C@@H](CC(=O)O)C(=O)N[C@@H](CCCN=C(N)N)C(=O)N[C@@H](CC(C)C)C(N)=O)[C@@H](C)CC	MIC	µM	>	133
CC(C)C[C@H](NC(=O)[C@H](CCCN=C(N)N)NC(=O)[C@H](CC(C)C)NC(=O)[C@H](CC(C)C)NC(=O)[C@H](CC(C)C)NC(=O)[C@H](CCCN=C(N)N)NC(=O)[C@H](CC(C)C)NC(=O)[C@@H](N)CCCN=C(N)N)C(=O)N[C@@H](CCCN=C(N)N)C(N)=O	MIC	µM	=	4

====

Values of MIC reported for Escherichia coli NCTC 10418 appear below.

COMPOUND	REPORTED_RELATION	MIC / µM
CC[C@H](C)[C@H](NC(=O)[C@H](CCCCN)NC(=O)[C@H](CCCCN)NC(=O)[C@H](C)NC(=O)[C@@H](NC(=O)[C@H](C)NC(=O)[C@H](CC(C)C)NC(=O)[C@H](CC(C)C)NC(=O)[C@H](C)NC(=O)[C@H](CCCCN)NC(=O)[C@H](CC(C)C)NC(=O)[C@H](CC(N)=O)NC(=O)[C@@H](N)CC(C)C)C(C)C)C(=O)N[C@@H](CC(C)C)C(N)=O [LNLKALLAVAKKIL]	=	4
CC(C)C[C@H](NC(=O)[C@H](CC(C)C)NC(=O)[C@H](CCCCN)NC(=O)[C@@H]1CCCN1C(=O)[C@H](CC(C)C)NC(=O)[C@@H](N)Cc1ccccc1)C(=O)N[C@@H](C)C(=O)NCC(=O)N[C@@H](CC(C)C)C(=O)N1CCC[C@H]1C(=O)N[C@@H](CO)C(=O)N[C@@H](Cc1ccccc1)C(=O)N[C@@H](CC(C)C)C(=O)N[C@H]1CSSC[C@@H](C(=O)O)NC(=O)[C@H](CCCCN)NC(=O)[C@H](CCCCN)NC(=O)[C@H](Cc2ccccc2)NC(=O)[C@H](C(C)C)NC(=O)[C@H](CC(C)C)NC1=O [FLPKLLAGLPSFLCLVFKKC]	=	16
CSCC[C@H](NC(=O)[C@H](CC(N)=O)NC(=O)[C@H](CCCN=C(N)N)NC(=O)[C@H](CCC(N)=O)NC(=O)[C@H](Cc1c[nH]c2ccccc12)NC(=O)[C@H](CCC(N)=O)NC(=O)[C@@H](N)Cc1ccccc1)C(=O)N[C@@H](CCCN=C(N)N)C(=O)N[C@@H](CCCCN)C(=O)N[C@H](C(=O)N[C@@H](CCCN=C(N)N)C(=O)NCC(=O)N1CCC[C@H]1C(=O)N1CCC[C@H]1C(=O)N[C@H](C(=O)N[C@@H](CO)C(=O)O)C(C)C)C(C)C [FQWQRNMRKVRGPPVS]	≥	500
CC[C@H](C)[C@@H]1NC(=O)[C@H](C)NC(=O)[C@@H](NC(=O)[C@H](Cc2ccccc2)NC(=O)[C@@H](NC(=O)[C@H](CCCCN)NC(=O)[C@@H]2CCCN2C(=O)[C@H](CC(C)C)NC(=O)[C@H](Cc2ccccc2)NC(=O)[C@H](CCCCN)NC(=O)[C@@H](N)CCCCN)[C@@H](C)CC)CSSC[C@@H](C(=O)O)NC(=O)[C@H](CCCCN)NC(=O)[C@H](CCCCN)NC(=O)[C@H]([C@@H](C)O)NC1=O [KKFLPKIFCAITKKC]	=	16
CC[C@H](C)[C@H](NC(=O)[C@H](C)NC(=O)[C@H](Cc1cnc[nH]1)NC(=O)[C@@H]1CCCN1C(=O)[C@@H](NC(=O)[C@H](CC(C)C)NC(=O)[C@H](CO)NC(=O)[C@H](Cc1ccccc1)NC(=O)[C@H](CC(C)C)NC(=O)[C@@H](N)Cc1ccccc1)[C@@H](C)CC)C(=O)NCC(=O)NCC(=O)N[C@@H](CC(C)C)C(=O)N[C@H](C(=O)N[C@@H](CO)C(=O)N[C@@H](C)C(=O)N[C@@H](Cc1ccccc1)C(=O)N[C@@H](CCCCN)C(N)=O)[C@@H](C)CC [FLFSLIPHAIGGLISAFK]	≥	150
NC(=O)CC[C@H](NC(=O)[C@H](CCCN=C(N)N)NC(=O)[C@H](CCCN=C(N)N)NC(=O)[C@@H](N)Cc1c[nH]c2ccccc12)C(=O)N[C@@H](CCCN=C(N)N)C(=O)N[C@@H](Cc1c[nH]c2ccccc12)C(N)=O [WRRQRW]	≥	130

Where these numbers come from: DBAASP
